# reported IC50; entries follow
EXPERIMENTAL TARGET: T1, αvβ3 integrin (human, UniProt P06756 31-1048; P05106 27-788)
T1 construct: whole, on cells; Same entry used for αvβ3-K562, U-87 MG and A375M cells; also called αvβ3-K562; αvβ3 transfected K562 cells
T1 sequence (P06756 31-1048, chain 1 of 2): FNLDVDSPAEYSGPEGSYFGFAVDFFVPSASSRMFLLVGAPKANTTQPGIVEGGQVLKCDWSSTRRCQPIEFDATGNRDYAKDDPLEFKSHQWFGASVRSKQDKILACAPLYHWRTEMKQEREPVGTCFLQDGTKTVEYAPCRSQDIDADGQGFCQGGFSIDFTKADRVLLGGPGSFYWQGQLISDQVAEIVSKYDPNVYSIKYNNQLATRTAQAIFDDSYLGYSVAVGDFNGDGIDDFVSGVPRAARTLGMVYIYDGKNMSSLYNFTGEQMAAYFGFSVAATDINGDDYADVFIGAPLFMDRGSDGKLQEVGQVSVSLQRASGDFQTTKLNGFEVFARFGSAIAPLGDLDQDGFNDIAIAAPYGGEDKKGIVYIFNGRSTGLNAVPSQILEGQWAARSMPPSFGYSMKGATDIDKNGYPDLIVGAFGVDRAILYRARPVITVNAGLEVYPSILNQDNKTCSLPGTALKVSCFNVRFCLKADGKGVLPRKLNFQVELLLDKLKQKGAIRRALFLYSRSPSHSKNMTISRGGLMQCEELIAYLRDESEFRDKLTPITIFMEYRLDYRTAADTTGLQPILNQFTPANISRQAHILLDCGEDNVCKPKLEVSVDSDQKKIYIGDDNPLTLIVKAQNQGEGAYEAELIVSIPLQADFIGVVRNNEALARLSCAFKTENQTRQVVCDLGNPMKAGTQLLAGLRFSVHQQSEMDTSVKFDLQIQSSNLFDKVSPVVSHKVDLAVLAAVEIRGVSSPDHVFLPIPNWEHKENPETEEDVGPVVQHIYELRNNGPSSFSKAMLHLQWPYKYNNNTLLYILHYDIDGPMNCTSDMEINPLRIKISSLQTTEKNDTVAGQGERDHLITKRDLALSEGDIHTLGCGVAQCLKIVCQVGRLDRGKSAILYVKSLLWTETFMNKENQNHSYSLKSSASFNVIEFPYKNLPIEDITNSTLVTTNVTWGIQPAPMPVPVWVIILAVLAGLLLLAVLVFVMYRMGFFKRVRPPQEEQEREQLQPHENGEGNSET
T1 sequence (P05106 27-788, chain 2 of 2): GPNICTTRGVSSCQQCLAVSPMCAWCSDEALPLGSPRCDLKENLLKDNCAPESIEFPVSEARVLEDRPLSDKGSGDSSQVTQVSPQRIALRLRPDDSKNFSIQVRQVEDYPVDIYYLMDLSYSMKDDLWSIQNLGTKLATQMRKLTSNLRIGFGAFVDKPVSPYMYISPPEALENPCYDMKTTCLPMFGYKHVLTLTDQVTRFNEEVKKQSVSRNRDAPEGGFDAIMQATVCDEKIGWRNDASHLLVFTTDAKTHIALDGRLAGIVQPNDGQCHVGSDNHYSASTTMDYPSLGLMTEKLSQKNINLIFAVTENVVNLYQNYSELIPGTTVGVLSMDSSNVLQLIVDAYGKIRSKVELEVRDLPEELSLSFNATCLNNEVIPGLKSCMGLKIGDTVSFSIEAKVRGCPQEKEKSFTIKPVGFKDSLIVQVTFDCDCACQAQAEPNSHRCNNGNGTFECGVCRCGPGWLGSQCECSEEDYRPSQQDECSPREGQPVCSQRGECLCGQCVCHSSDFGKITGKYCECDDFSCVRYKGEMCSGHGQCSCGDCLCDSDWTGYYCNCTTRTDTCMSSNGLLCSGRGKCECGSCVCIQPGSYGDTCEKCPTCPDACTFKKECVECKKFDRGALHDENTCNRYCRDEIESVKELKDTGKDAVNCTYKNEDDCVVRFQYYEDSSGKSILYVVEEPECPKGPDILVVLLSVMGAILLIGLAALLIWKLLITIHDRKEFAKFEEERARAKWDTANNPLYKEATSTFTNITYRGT
PROTOCOL: flow cytometry, competition with biotinylated LXW7 on αvβ3-K562 cells; ++ = IC50 1-10 µM
Bridge positions count the residues as written; N and C are the ends. Square brackets hold non-standard residues; d marks the D form. Ends that are not written are not given here. d1Nal = N[C@H](Cc1cccc2ccccc12)C(=O)O

Previously resolved entries follow.
CGRGD[dD][d1Nal]C-NH2 (disulfide 1-8; N-terminus assumed; SMILES N=C(N)NCCC[C@@H]1NC(=O)CNC(=O)[C@@H](N)CSSC[C@@H](C(N)=O)NC(=O)[C@@H](Cc2cccc3ccccc23)NC(=O)[C@@H](CC(=O)O)NC(=O)[C@H](CC(=O)O)NC(=O)CNC1=O, also called CGRGDd-DNal1-C) [LXW47] ... 1 to 10 µM
{p‑chlorophenyl acetyl}-[dC]GRGD[dD][dV][dC]-NH2 (disulfide 1-8) [LXW81] ... 1 to 10 µM

For the next question, use this binder.
Request: # get_value(readout='IC50', item= CGRGD[dD][dV][dC]-NH2 (disulfide 1-8; N-terminus assumed; SMILES CC(C)[C@H]1NC(=O)[C@@H](CC(=O)O)NC(=O)[C@H](CC(=O)O)NC(=O)CNC(=O)[C@H](CCCNC(=N)N)NC(=O)CNC(=O)[C@@H](N)CSSC[C@H](C(N)=O)NC1=O) [LXW9] )
Response: 1 to 10 µM

The measured values listed here are drawn from patent US9073974B2.
